Each recorded value in this set is attributed to patent US8921307B2.

Below, each entry is listed with its recorded EC50.
- Target System: hAPJ (Homo sapiens)
- Sequence (P35414 1-380): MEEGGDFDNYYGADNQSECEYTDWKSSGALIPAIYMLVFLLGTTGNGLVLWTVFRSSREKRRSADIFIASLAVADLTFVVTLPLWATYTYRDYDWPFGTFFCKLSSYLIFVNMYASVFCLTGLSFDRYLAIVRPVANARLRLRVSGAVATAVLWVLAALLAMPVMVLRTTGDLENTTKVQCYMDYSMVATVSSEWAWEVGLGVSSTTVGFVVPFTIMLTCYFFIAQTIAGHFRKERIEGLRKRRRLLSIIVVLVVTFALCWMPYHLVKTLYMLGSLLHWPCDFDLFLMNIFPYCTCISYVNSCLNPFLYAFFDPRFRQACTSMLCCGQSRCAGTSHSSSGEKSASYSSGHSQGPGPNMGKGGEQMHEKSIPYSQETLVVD
- Assay Comment: hAPJ Calcium Flux Assay
- Type: cell-based
- Measurement Conditions: Chem-5 APJ stable cells, FLIPR calcium flux stimulation; read-out: hAPJ Ca^2+ Flux EC50
Where a SMILES comes first, the peptide text is derived from it. [ ]: non-standard residue; d: D form. pGlu = O=C1CC[C@@H](C(=O)O)N1; dNle = CCCC[C@@H](N)C(=O)O; dNva = CCC[C@@H](N)C(=O)O; Nle = CCCC[C@H](N)C(=O)O; Aib = CC(C)(N)C(=O)O
Measured Endpoint: EC50

Molecule	Observed Value
CCCC[C@@H](NC(=O)[C@@H]1CCCN1C(=O)CNC(=O)[C@H](CCCCN)NC(=O)[C@@H](Cc1c[nH]cn1)NC(=O)[C@H](CO)NC(=O)[C@H](CC(C)C)NC(=O)[C@H](CCCNC(=N)N)NC(=O)[C@@H]1CCCN1C(=O)[C@H](CCCNC(=N)N)NC(=O)[C@@H]1CCC(=O)N1)C(=O)N[C@H](C)C(=O)N[C@H](Cc1ccccc1)C(=O)O [Example 56, pE-R-P-R-L-S-h-K-G-P-nle-a-f-OH] ([pGlu]RPRLS[dH]KGP[dNle][dA][dF]-OH)	6.8 nM
CCCC[C@@H](NC(=O)[C@@H]1CCCN1C(=O)CNC(=O)[C@H](CCCCN)NC(=O)C(C)(C)NC(=O)[C@H](CO)NC(=O)[C@H](CC(C)C)NC(=O)[C@H](CCCNC(=N)N)NC(=O)[C@@H]1CCCN1C(=O)[C@H](CCCNC(=N)N)NC(=O)[C@@H]1CCC(=O)N1)C(=O)N[C@H](C)C(=O)N[C@H](Cc1ccccc1)C(=O)O [Example 40, pE-R-P-R-L-S-Aib-K-G-P-nle-a-f-OH] ([pGlu]RPRLS[Aib]KGP[dNle][dA][dF]-OH)	2 nM
CCCC[C@H](NC(=O)[C@@H]1CCCN1C(=O)CNC(=O)[C@H](CCCCN)NC(=O)C(C)(C)NC(=O)[C@H](CO)NC(=O)[C@H](CC(C)C)NC(=O)[C@H](CCCNC(=N)N)NC(=O)[C@@H]1CCCN1C(=O)[C@H](CCCNC(=N)N)NC(=O)[C@@H]1CCC(=O)N1)C(=O)N[C@H](C)C(=O)N[C@H](Cc1ccccc1)C(=O)O [Example 38, pE-R-P-R-L-S-Aib-K-G-P-Nle-a-f-OH] ([pGlu]RPRLS[Aib]KGP[Nle][dA][dF]-OH)	3.3 nM
CCCC[C@@H](NC(=O)[C@@H]1CCCN1C(=O)CNC(=O)[C@H](CCCCN)NC(=O)[C@@H](Cc1ccccc1)NC(=O)[C@@H](C)NC(=O)[C@H](CC(C)C)NC(=O)[C@H](CCCNC(=N)N)NC(=O)[C@@H]1CCCN1C(=O)[C@H](CCCNC(=N)N)NC(=O)[C@@H]1CCC(=O)N1)C(=O)N[C@H](C)C(=O)N[C@H](Cc1ccccc1)C(=O)O [Example 46, pE-R-P-R-L-a-f-K-G-P-nle-a-f-OH] ([pGlu]RPRL[dA][dF]KGP[dNle][dA][dF]-OH)	9.2 nM
CCCC[C@@H](NC(=O)[C@@H]1CCCN1C(=O)CNC(=O)[C@H](CCCCN)NC(=O)[C@H](Cc1c[nH]cn1)NC(=O)[C@@H](C)NC(=O)[C@H](CC(C)C)NC(=O)[C@H](CCCNC(=N)N)NC(=O)[C@@H]1CCCN1C(=O)[C@H](CCCNC(=N)N)NC(=O)[C@@H]1CCC(=O)N1)C(=O)N[C@H](CCC)C(=O)N[C@H](Cc1ccccc1)C(=O)O [Example 54, pE-R-P-R-L-a-H-K-G-P-nle-nva-f-OH] ([pGlu]RPRL[dA]HKGP[dNle][dNva][dF]-OH)	0.9 nM
CCCC[C@@H](NC(=O)[C@@H]1CCCN1C(=O)CNC(=O)[C@H](CCCCN)NC(=O)C(C)(C)NC(=O)[C@H](CO)NC(=O)[C@H](CC(C)C)NC(=O)[C@H](CCCNC(=N)N)NC(=O)[C@@H]1CCCN1C(=O)[C@H](CCCNC(=N)N)NC(=O)[C@@H]1CCC(=O)N1)C(=O)N[C@H](C)C(=O)N[C@@H](Cc1ccccc1)C(=O)O [Example 37, pE-R-P-R-L-S-Aib-K-G-P-nle-a-F-OH] ([pGlu]RPRLS[Aib]KGP[dNle][dA]F-OH)	3.9 nM
CCCC[C@@H](NC(=O)[C@@H]1CCCN1C(=O)CNC(=O)[C@H](CCCCN)NC(=O)[C@@H](C)NC(=O)[C@H](CO)NC(=O)[C@H](CC(C)C)NC(=O)[C@H](CCCNC(=N)N)NC(=O)[C@@H]1CCCN1C(=O)[C@H](CCCNC(=N)N)NC(=O)[C@@H]1CCC(=O)N1)C(=O)N[C@H](C)C(=O)N[C@H](Cc1ccccc1)C(=O)O [Example 51, pE-R-P-R-L-S-a-K-G-P-nle-a-f-OH] ([pGlu]RPRLS[dA]KGP[dNle][dA][dF]-OH)	8.5 nM
CCCC[C@@H](NC(=O)[C@@H]1CCCN1C(=O)CNC(=O)[C@H](CCCCN)NC(=O)C(C)(C)NC(=O)[C@H](CO)NC(=O)[C@@H](CC(C)C)NC(=O)[C@H](CCCNC(=N)N)NC(=O)[C@@H]1CCCN1C(=O)[C@H](CCCNC(=N)N)NC(=O)[C@@H]1CCC(=O)N1)C(=O)N[C@H](C)C(=O)N[C@H](Cc1ccccc1)C(=O)O [Example 4, pE-R-P-R-(D-Leu)-S-Aib-K-G-P-nle-a-f-OH] ([pGlu]RPR[dL]S[Aib]KGP[dNle][dA][dF]-OH)	5 nM
CCCC[C@@H](NC(=O)[C@@H]1CCCN1C(=O)CNC(=O)[C@H](CCCCN)NC(=O)[C@H](Cc1c[nH]cn1)NC(=O)[C@@H](C)NC(=O)[C@H](CC(C)C)NC(=O)[C@H](CCCNC(=N)N)NC(=O)[C@@H]1CCCN1C(=O)[C@H](CCCNC(=N)N)NC(=O)[C@@H]1CCC(=O)N1)C(=O)N[C@@H](Cc1ccccc1)C(=O)O [Example 18, pE-R-P-R-L-a-H-K-G-P-nle-F-OH] ([pGlu]RPRL[dA]HKGP[dNle]F-OH)	66.5 nM
